# SYSTEM_NAME: PAD4 (Homo sapiens)
# ASSAY_DETAILS: Conversion (R to Cit) of substrate peptides by PAD4, mass spectrometry
# Type: biochemical
# TEST_CONDITIONS: Table 7, PAD4, test system with 3 times less enzyme
Ends that are not written are not given here.
Our labelling divides records by Conversion into ranges: low bin = under 50, mid bin = from 50 up to 60, high bin = 60 and over

Solved entries:
SUBSTANCE	ASSIGNED_LABEL
D-S-K-K-H-D-R-D-K-L-F-S-D (DSKKHDRDKLFSD; not fully specified (C-terminus); printed as D-S-K-K-H-D-R-D-K-L-F-S-D) [Peptide 0708-24]	low bin
D-S-K-K-H-D-R-D-H-L-W-S-D (DSKKHDRDHLWSD; not fully specified (C-terminus); printed as D-S-K-K-H-D-R-D-H-L-W-S-D) [Peptide 0708-20]	high bin
D-S-K-W-F-D-R-D-H-L-Y-S-D (DSKWFDRDHLYSD; not fully specified (C-terminus); printed as D-S-K-W-F-D-R-D-H-L-Y-S-D) [Peptide 0708-16]	high bin
D-S-K-K-H-D-R-D-H-L-F-S-D (DSKKHDRDHLFSD; not fully specified (C-terminus); printed as D-S-K-K-H-D-R-D-H-L-F-S-D) [Peptide 0708-21]	mid bin
D-S-K-K-F-D-R-G-H-L-Y-S-D (DSKKFDRGHLYSD; not fully specified (C-terminus); printed as D-S-K-K-F-D-R-G-H-L-Y-S-D) [Peptide 0708-30]	high bin
D-S-K-K-Y-D-R-G-F-L-W-S-D (DSKKYDRGFLWSD; not fully specified (C-terminus); printed as D-S-K-K-Y-D-R-G-F-L-W-S-D) [Peptide 0708-34]	high bin

Into which bin does this substance go? D-S-K-K-H-F-R-D-K-L-Y-S-D (DSKKHFRDKLYSD; not fully specified (C-terminus); printed as D-S-K-K-H-F-R-D-K-L-Y-S-D) [Peptide 0708-22]
low bin

Determine which band this substance sits in: D-S-K-K-F-H-R-D-F-L-Y-S-D (DSKKFHRDFLYSD; not fully specified (C-terminus); printed as D-S-K-K-F-H-R-D-F-L-Y-S-D) [Peptide 0708-25]
mid bin

----------
Please go through the items and note down their Conversion (%).
# SYSTEM_NAME: PAD4 (Homo sapiens)
# ASSAY_DETAILS: Conversion (R to Cit) of substrate peptides by PAD4, mass spectrometry
# Type: biochemical
# TEST_CONDITIONS: Table 4, 13-mer peptides, PAD4
Ends that are not written are not given here.
Answers are plain numbers, in %.

SUBSTANCE	SYSTEM_NAME	U	Conversion (%)
D-S-H-H-W-D-R-E-W-F-W-S-D (DSHHWDREWFWSD; not fully specified (C-terminus); printed as D-S-H-H-W-D-R-E-W-F-W-S-D) [Peptide 0608-40]	PAD4 (Homo sapiens)	%	100

For each of the items listed, what is its Conversion (%)?
1. D-S-K-K-W-S-R-E-Y-F-F-S-D (DSKKWSREYFFSD; not fully specified (C-terminus); printed as D-S-K-K-W-S-R-E-Y-F-F-S-D) [Peptide 0608-30]
2. D-S-H-K-L-D-R-E-Y-M-F-S-D (DSHKLDREYMFSD; not fully specified (C-terminus); printed as D-S-H-K-L-D-R-E-Y-M-F-S-D) [Peptide 0608-34]

[90, 90]

----------
# SYSTEM_NAME: PAD2 (Homo sapiens, UniProt Q9Y2J8)
# Sequence (Q9Y2J8 whole entry): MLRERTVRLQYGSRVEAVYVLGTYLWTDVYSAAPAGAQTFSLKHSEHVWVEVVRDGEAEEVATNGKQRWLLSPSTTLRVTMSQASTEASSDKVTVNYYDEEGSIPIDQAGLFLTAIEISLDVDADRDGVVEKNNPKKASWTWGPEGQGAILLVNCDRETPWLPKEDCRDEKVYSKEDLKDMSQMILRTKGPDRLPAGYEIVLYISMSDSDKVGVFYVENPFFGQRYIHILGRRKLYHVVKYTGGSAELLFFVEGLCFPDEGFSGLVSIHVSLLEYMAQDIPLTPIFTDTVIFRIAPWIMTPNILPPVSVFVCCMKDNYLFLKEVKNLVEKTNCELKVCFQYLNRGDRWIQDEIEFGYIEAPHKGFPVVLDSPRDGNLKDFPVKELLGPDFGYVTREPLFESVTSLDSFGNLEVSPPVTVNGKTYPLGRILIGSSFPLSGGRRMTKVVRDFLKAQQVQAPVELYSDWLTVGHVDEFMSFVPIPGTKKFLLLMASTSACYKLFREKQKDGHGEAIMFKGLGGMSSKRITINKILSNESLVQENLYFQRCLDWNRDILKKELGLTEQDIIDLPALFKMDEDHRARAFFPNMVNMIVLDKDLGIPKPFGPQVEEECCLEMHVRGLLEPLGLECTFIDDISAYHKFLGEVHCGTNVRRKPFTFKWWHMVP
# ASSAY_DETAILS: Citrullination of synthetic peptides by recombinant human PAD2 (MALDI-TOF and ESI-Q-TOF mass spectrometry)
# Assay type: biochemical
# Parameters: His6; made in house
# TEST_CONDITIONS: share of peptide with one citrulline
Answer criterion not met if PAD2 conversion: 1 Cit is under 30%, and criterion met if it is 30% or more.

SUBSTANCE	ASSIGNED_LABEL
DGYGGSRDSYSSS [SEQ ID NO: 3]	criterion met
IGSRGDRSGFGKF [SEQ ID NO: 6]	criterion met
D-S-Q-F-A-F-R-G-A-S-A-S-D (DSQFAFRGASASD) [Peptide 0308-29, reference compound]	criterion met
DSEGTWRKGPEAD [SEQ ID NO: 8]	criterion met
DDYSSSRDGYGGS [SEQ ID NO: 1]	criterion not met
DSSEELRGGGKSD [SEQ ID NO: 9]	criterion met

API: above_or_equal(metric=PAD2 conversion: 1 Cit, cutoff=30%) for item IEIMTDRGSGKKR [SEQ ID NO: 5]
criterion met

API: above_or_equal(metric=PAD2 conversion: 1 Cit, cutoff=30%) for item GGYSGDRSGGGYG [SEQ ID NO: 2]
criterion met

Is PAD2 conversion: 1 Cit at least 30%? Consider DSRFYWRGGGKSD [SEQ ID NO: 10]
criterion not met

Has IEIITDRQSGKKR [SEQ ID NO: 7] a recorded PAD2 conversion: 1 Cit greater than or equal to 30%?
criterion met

----------
# SYSTEM_NAME: PAD2 (Homo sapiens, UniProt Q9Y2J8)
# ASSAY_DETAILS: Conversion (R to Cit) of substrate peptides by PAD2, mass spectrometry
# Type: biochemical
# TEST_CONDITIONS: Table 9, PAD2
# Method: In a similar fashion as for PAD4 we identified improved peptide substrates for PAD2. Again L1 was used as a lead compound. The set of 152 peptides from Table 3 was used and testing was performed as described before. Conversion of arginine into citrulline in the substrate peptides by PAD2 or PAD4 using mass spectrometry was performed as follows. […] A sample was analysed on a Qtof mass spectrometer (Micromass, UK) and the mass spectrum was compared with that of the same peptide not treated with PAD. […]
Answer Not met if Conversion (%) is under 90%, and Met if it is 90% or more.

SUBSTANCE	ASSIGNED_LABEL
D-S-W-K-A-F-R-G-A-S-A-S-D (DSWKAFRGASASD) [Peptide 0735-29]	Not met
D-S-Q-C-L-F-R-G-A-F-A-S-D (DSQCLFRGAFASD) [Peptide 0735-40]	Not met
D-S-Q-W-A-F-R-H-A-L-F-S-D (DSQWAFRHALFSD) [Peptide 0735-37]	Met
D-S-Q-F-K-F-R-G-A-F-A-S-D (DSQFKFRGAFASD) [Peptide 0735-39]	Not met

Would you kindly look at the next entry?
Determine whether measured Conversion (%) meets or exceeds 90% for D-S-Q-F-A-F-R-G-A-F-W-S-D (DSQFAFRGAFWSD) [Peptide 0735-30]
Not met

----------
# SYSTEM_NAME: PAD2 (Homo sapiens)
# ASSAY_DETAILS: Conversion (R to Cit) of substrate peptides by PAD2, mass spectrometry
# Type: biochemical
# TEST_CONDITIONS: Table 10
Ends that are not written are not given here.
REPORTED_PROPERTY: Conversion by PAD2 (%)
One number for each entry, in %.

Could I get Conversion by PAD2 (%) for every one of these entries?
1. D-S-K-K-Y-D-R-D-F-L-W-S-D (DSKKYDRDFLWSD; not fully specified (C-terminus); printed as D-S-K-K-Y-D-R-D-F-L-W-S-D) [Peptide 0708-29]
2. F-F-D-S-K-H-K-S-R-D-F-V-Y-S-D (FFDSKHKSRDFVYSD) [Peptide 0612-29]
3. D-S-K-K-Y-D-R-G-F-L-W-S-D (DSKKYDRGFLWSD; not fully specified (C-terminus); printed as D-S-K-K-Y-D-R-G-F-L-W-S-D) [Peptide 0708-34]
4. D-S-K-K-F-H-R-D-F-L-Y-S-D (DSKKFHRDFLYSD; not fully specified (C-terminus); printed as D-S-K-K-F-H-R-D-F-L-Y-S-D) [Peptide 0708-25]
5. D-S-K-F-H-F-R-Y-A-V-A-S-D (DSKFHFRYAVASD; not fully specified (C-terminus); printed as D-S-K-F-H-F-R-Y-A-V-A-S-D) [Peptide 0735-35]

1. 92
2. 92
3. 93
4. 97
5. 92

For each of the substances below, state Conversion by PAD2 (%).
1. D-S-K-W-H-H-R-G-H-L-Y-S-D (DSKWHHRGHLYSD) [Peptide 0708-31]
2. D-S-K-K-F-H-R-G-F-L-Y-S-D (DSKKFHRGFLYSD; not fully specified (C-terminus); printed as D-S-K-K-F-H-R-G-F-L-Y-S-D) [Peptide 0708-33]
3. D-S-K-K-K-H-R-E-W-V-W-S-D (DSKKKHREWVWSD; not fully specified (C-terminus); printed as D-S-K-K-K-H-R-E-W-V-W-S-D) [Peptide 0608-32]
4. D-S-H-K-W-H-R-D-F-F-Y-S-D (DSHKWHRDFFYSD; not fully specified (C-terminus); printed as D-S-H-K-W-H-R-D-F-F-Y-S-D) [Peptide 0608-35]

[96, 100, 100, 92]

----------
# SYSTEM_NAME: PAD4 (Homo sapiens, UniProt Q9UM07)
# Sequence (Q9UM07 whole entry): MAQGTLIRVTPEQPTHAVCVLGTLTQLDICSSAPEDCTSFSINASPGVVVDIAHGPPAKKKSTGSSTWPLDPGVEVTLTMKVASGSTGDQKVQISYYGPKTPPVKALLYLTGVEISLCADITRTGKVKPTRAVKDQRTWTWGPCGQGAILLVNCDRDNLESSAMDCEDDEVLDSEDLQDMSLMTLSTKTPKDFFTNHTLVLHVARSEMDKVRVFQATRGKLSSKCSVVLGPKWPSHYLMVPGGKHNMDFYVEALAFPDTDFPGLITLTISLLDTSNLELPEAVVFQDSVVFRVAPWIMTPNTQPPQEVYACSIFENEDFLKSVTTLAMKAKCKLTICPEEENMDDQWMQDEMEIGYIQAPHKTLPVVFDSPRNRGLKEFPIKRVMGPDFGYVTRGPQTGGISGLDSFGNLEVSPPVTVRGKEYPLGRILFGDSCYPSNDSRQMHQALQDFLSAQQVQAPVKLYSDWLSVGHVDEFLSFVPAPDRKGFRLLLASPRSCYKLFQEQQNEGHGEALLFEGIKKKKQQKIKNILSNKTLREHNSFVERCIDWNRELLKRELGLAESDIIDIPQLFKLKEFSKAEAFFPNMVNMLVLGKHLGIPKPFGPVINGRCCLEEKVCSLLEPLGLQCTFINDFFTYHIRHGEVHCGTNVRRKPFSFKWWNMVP
# ASSAY_DETAILS: Conversion (R to Cit) of substrate peptides by PAD4, mass spectrometry
# Type: biochemical
# TEST_CONDITIONS: Table 5, peptides with two additional N-terminal F-residues, PAD4
Would you mind telling me the reported Conversion (%) of each entry?
Answers are plain numbers, in %.

SUBSTANCE	Conversion (%)
F-F-D-S-K-H-L-S-R-E-W-M-W-S-D (FFDSKHLSREWMWSD) [Peptide 0612-26]	100

I'm hoping you can list Conversion (%) for every substance here, please.
1. F-F-D-S-K-H-F-H-R-D-F-I-Y-S-D (FFDSKHFHRDFIYSD) [Peptide 0612-25]
2. F-F-D-S-H-H-L-S-R-D-F-M-Y-S-D (FFDSHHLSRDFMYSD) [Peptide 0612-41]
3. F-F-D-S-H-K-W-S-R-D-H-F-E-S-D (FFDSHKWSRDHFESD) [Peptide 0612-47]

100
98
100

This collection of values is drawn from patent US8404647B2.
